Each entry below carries its reported ligation selection enrichment.
B1: library; a variant is named by its letters at N, in order (parent)
chain: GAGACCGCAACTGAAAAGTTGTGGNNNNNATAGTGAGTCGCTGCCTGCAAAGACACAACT

variants of: B1; assay: ligation selection enrichment (abundance after / before one-round selection) (fold); higher = more template-directed ligation activity; conditions: with T7Psub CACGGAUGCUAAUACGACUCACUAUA; MgCl2 25 mM; 42 °C; 4 h; pH 8.5
// print number alone

* AGAAA | 0.306
* CTGTT | 0.3
* CGATA | 1.05
* ACAGC | 0.135
* CCGTA | 0.213
* CGTGA | 0.58
* GATCC | 0.276
* CGCAA | 0.29
* TTGAG | 0.82
* CCAAA | 0.162

Pending variant:
Recorded result, `GGCTA` , ligation selection enrichment: 0.228
